# α7 nAChR subtype (Rattus norvegicus, UniProt Q05941): pKi values follow
# Sequence (Q05941 23-502): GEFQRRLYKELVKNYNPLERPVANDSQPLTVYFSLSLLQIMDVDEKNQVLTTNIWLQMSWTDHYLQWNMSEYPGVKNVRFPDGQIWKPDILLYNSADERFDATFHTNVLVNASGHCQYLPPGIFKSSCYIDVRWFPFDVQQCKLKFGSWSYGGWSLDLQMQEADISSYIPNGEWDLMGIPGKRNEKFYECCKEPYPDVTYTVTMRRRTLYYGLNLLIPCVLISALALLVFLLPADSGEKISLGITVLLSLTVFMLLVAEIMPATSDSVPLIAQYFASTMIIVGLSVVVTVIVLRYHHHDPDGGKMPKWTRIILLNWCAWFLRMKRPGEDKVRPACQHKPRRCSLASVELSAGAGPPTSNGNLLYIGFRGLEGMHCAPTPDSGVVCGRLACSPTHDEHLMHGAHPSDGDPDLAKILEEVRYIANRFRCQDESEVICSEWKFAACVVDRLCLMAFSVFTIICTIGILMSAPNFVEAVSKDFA
Answers are plain numbers, as −log10 of the molar value.

# Compound, Tgt, Assay Result
measured = [
    ("Nc1cccc(-c2ccc3c(c2)C(=O)N([C@H]2CN4CCC2CC4)C3)c1 [Example 57]", "α7 nAChR subtype (Rattus norvegicus, UniProt Q05941)", 8.19),
    ("O=C(c1cccc(-c2ccc3c(c2)C(=O)N([C@H]2CN4CCC2CC4)C3)c1)N1CCOCC1 [Example 68]", "α7 nAChR subtype (Rattus norvegicus, UniProt Q05941)", 7.36),
]

Please state pKi for every compound in the list that follows.
1. O=C1c2cc(-c3cncc4ccccc34)ccc2CN1[C@H]1CN2CCC1CC2 [Example 48]
2. O=C1c2cc(-c3cnc4ccccc4c3)ccc2CN1[C@H]1CN2CCC1CC2 [Example 45]
3. NC(=O)c1cccc(-c2ccc3c(c2)C(=O)N([C@H]2CN4CCC2CC4)C3)c1 [Example 55]
4. O=C1c2cc(-c3ccccc3Cl)ccc2CN1[C@H]1CN2CCC1CC2 [Example 35]
5. CCN(CC)C(=O)c1cccc(-c2ccc3c(c2)C(=O)N([C@H]2CN4CCC2CC4)C3)c1 [Example 66]

6.95
7.18
7.77
8.20
7.70

Please state, for each entry, its recorded pKi.
1. O=C(c1cccc(-c2ccc3c(c2)C(=O)N([C@H]2CN4CCC2CC4)C3)c1)N1CCCCC1 [Example 69]
2. O=C1c2cc(-c3ccc4c(c3)OCCO4)ccc2CN1[C@H]1CN2CCC1CC2 [Example 60]

[7.64, 7.55]

Provide pKi for all items below, preserving their order.
1. COc1cc(OC)cc(-c2ccc3c(c2)C(=O)N([C@H]2CN4CCC2CC4)C3)c1 [Example 54]
2. O=C1c2cc(-c3cccc4cnccc34)ccc2CN1[C@H]1CN2CCC1CC2 [Example 47]
3. O=C1c2cc(-c3cccc(Cl)c3)ccc2CN1[C@H]1CN2CCC1CC2 [Example 31]

1. 6.17
2. 7.49
3. 7.34

Please report pKi for every entry that follows.
1. O=C(NCc1ccccc1)c1ccc(-c2ccc3c(c2)C(=O)N([C@H]2CN4CCC2CC4)C3)cc1 [Example 56]
2. Cn1cc(-c2ccc3c(c2)C(=O)N([C@H]2CN4CCC2CC4)C3)cn1 [Example 50]
3. CCNC(=O)c1ccc(-c2ccc3c(c2)C(=O)N([C@H]2CN4CCC2CC4)C3)cc1 [Example 53]
4. CN1CCN(c2ccc3c(c2)C(=O)N([C@H]2CN4CCC2CC4)C3)CC1 [Example 38]
5. O=C1c2cc(-c3cccc4ncccc34)ccc2CN1[C@H]1CN2CCC1CC2 [Example 42]

7.00
7.21
6.46
6.37
7.05
